System: gene editing with Cas9
test_details: Screen of 322 new SSAP proteins, gene editing activity with Cas9 (Table 5)
Assay type: cell-based
condition_description: normalized
Threshold rule: Cas9 with SSAP activity (normalized) greater than or equal to -1 is true (1); below that, false (0).

Here's what some known entries look like.
SSAP_266: SEQ ID NO: 435; Bacteroides stercoris (protein, listed as Bacteroides stercoris) STITTIPQLKSMLANDNVKARFKEILGKKAPGFISSIVAVANSNTLLQKAEPQSIMNAAVVAATLDLPINPNLGFAYVVPYGNQAQFQMGWRGFVQLAMRSGQYKTINVNEIYEGEIKKSNRFTGEYEFGERASDKIVGYMAYFSLINGFEKFLYMSKEDCEKHGRKFSQTYKRGTGIWSTDFDSMAKKTVLKMLLSKFGILSIEMQRAQTFDQAIIKDNLAETDIDEAEVSYNDNPDNEEARRNAMKEALQEAEVVDENTGELFNTETK : false (0)
SSAP_121: SEQ ID NO: 290; Bacillus sp. JAS24-2 (protein, listed as Bacillus sp.) ATNKDVKNQLANRKASAPVTTEQTVEAYMKKMGPKMAEVLPKHMDMDRMSRIALTTIRTNPKLLECSVPSLMGAVMSAVQLGLEPGLLGHCYILPYKSEATFIIGYKGMIDLARRSGHIQSIYAHAVYENDEFEYELGLHPQLKHKPSFGDRGEFIGAYAVAHFKDGGHQMEFMPKSEIEKRRGRSASANSNYSPWKTDYEEMAKKTVVRYMFKYLPISIEVQSQAQQDEVVRKDITEEPEFIEVEQQTEGDGQGDFVIEGE : true (1)
SSAP_20: SEQ ID NO: 189; CK3_26380 butyrate-producing bacterium SS3/4 (protein, butyrate-producing bacterium SS3/4) ENATAVQQAESQGTQDFSAPVKHNTDFSLGIFGSSDNFLMATQMAKAFASSTIVPKEYQGNFANGLVAMDIANRLKTSPFMVMQNLDVIQGRPAWRATFLIAMINRSKKYDIELQFEEKRDKNGKPYSCTCWTTKDGRKVTGIEVTMDMAEAEGWTKKNGSKWITMPQVMLRYRAASFFSRMNCPELSNGLYTTDEVYEMADSEYKVYNLEDEVKRDLAQNANKEEFVAPPNETAPESESKGSEPLDPAVENQKSGDTPDWMKPETM : true (1)
SSAP_53: SEQ ID NO: 222 (protein) STALTTLTSQLSQRFKLDGGEELLTTLKQTAFKGQVTDAQMTALLIVANQFGLNPWTKEIYAFPDKNGGIVPVVGVDGWARIINEHPQFDGMDFEMDGEQSCTCVIYRKDRTRPIRITEYMAECKKTGGGPWQSHPRRMLRHKAMIQCARMAFGFGGISDEDDAERIREKDITPQAEVVPKALEPYPADKFEENFEQWKSLIESGRRSADDVIAKIKSRNTMTDEQETRLRACGGEEGKTYENA : false (0)
SSAP_224: SEQ ID NO: 393; Clostridium tyrobutyricum (protein, listed as Clostridium tyrobutyricum) SDKKMVVLGESHKALSKLLETKQEALPKDFNKARFLQNCMTVLQDTKDIDKCQPISVARTMLKGAFLGLDFFNRECYAIPYGGNLQFQTDYKGEIKLAKKYSFNSIKDIYAKIVREGDDFQESIEDGRQTINFKPLPFNNGEIIGAFAVCLFQDGSMLYETMTKQEIEDIRNNFSKAKNSPAWVKTPGEMYKKTVLRRLCKLIELDFDSVETKKTYDETSEFEFGSANHEVSNFDKDDSNIIEADAEIQDDVQEGDGEDE : true (1)

-- ask Given SSAP_143: SEQ ID NO: 312; Staphylococcus chromogenes (protein, Staphylococcus chromogenes) ANAKEFKKQMNSKNEVAETNNAPQKAKGPRQQVSDLLDRMAPEIQKALPNNMSAERMARIAMTAVSSNPKLLECDPKSFIGALMQASQIGLEPNTALGQAYLIPYGNQVQLQLSYLGLIELATRTGQYKAIYAHEVYKDDEFSYEYGLYKNLIHKPVDDPNGEPIGYYAVYHLMNGGYDFAYWTRKKVEAHAQQYSKAVQQGWNSPWKSDFNAMAKKTVLKDLLKYAPKAIEVSQAIGSDSKVSEINDEGEIIDVTDYSQEEEK , state whether its Cas9 with SSAP activity (normalized) is at least -1.
-- reply false (0)

-- ask Decide: is the reported value of Cas9 with SSAP activity (normalized) for SSAP_86: SEQ ID NO: 255 (protein) ADLTKTANGADLAAAIGGKQAETGRATAFDLVKSMEAEFAKALPRHVPVEQFMRTAVTELRQNADLQRSTSESLLGAFLTAARLGLEVGGPMGEFYLTPRFAKLPGQDQKAWQVVPIVGYRGLVKLARNAGVGAVKAWVVYEGDHFVEGANSERGPFFDFHPVPGDPAGRKEVGVLAVARLSGGDVQHTYLTIEQVEKRKARGSAGDKGPWATDRAAMIRKSGIRALAGELPQSTLLALARVVDEEVQTYVPGSLVDVGTGELEA equal to or greater than -1?
-- reply true (1)
